Where do these numbers come from? They come from ChEMBL document CHEMBL1145389.

# Species on record: Bos taurus
# method_summary: Induction of bovine brain tubulin polymerization at 10 uM relative to paclitaxel
experimental_readout: % tubulin polymerization (%)
Write the number in % without appending the unit.

Q: Given C=C/C=C\[C@H](C)[C@H](O)[C@H](C)[C@@H]1CC/C=C\[C@H](C)[C@@H](O)[C@@H](C)/C=C\[C@H](O)C[C@H](O)[C@H](C)/C=C\C=C\C(=O)O1 , state its recorded % tubulin polymerization.
Result: 6

Q: Given C=C/C=C\[C@H](C)[C@H](O)[C@@H](C)[C@H]1CC[C@@H](C)C[C@H](C)[C@@H](O)[C@@H](C)/C=C\[C@@H](O)C[C@H](O)[C@H](C)/C=C/C=C\C(=O)O1 , state its recorded % tubulin polymerization.
Result: 3

Q: Given C=C/C=C\[C@H](C)[C@@H]1OC(=O)/C=C\C=C\[C@@H](C)[C@@H](O)C[C@H](O)/C=C\[C@H](C)[C@H](O)[C@@H](C)CCCC[C@@H](O)[C@@H]1C , state its recorded % tubulin polymerization.
Result: 91

Q: Given C=C/C=C\[C@H](C)[C@@H]1OC(=O)/C=C\C=C\[C@@H](C)[C@@H](O)C[C@H](O)/C=C\[C@H](C)[C@H](O)[C@@H](C)/C=C\CC[C@@H](O)[C@@H]1C , state its recorded % tubulin polymerization.
Result: 107

Q: Given C=C/C=C\[C@H](C)[C@@H]1OC(=O)/C=C\C=C\[C@@H](C)[C@@H](O)C[C@H](O)/C=C\[C@H](C)[C@H](O)[C@@H](C)C[C@H](C)CC[C@@H](O)[C@@H]1C , state its recorded % tubulin polymerization.
Result: 9

====

# System: 1A9/ptx-10
# method_summary: Growth inhibition of beta tubulin Phe270Val mutant expressing human 1A9/Ptx10 cells after 72 hrs
# Type: functional
# condition_parameters: 1A9/ptx-10, 72 h
experimental_readout: GI50
Quote the value and follow it with the unit of measurement.

Q: What is its GI50 for 1A9/ptx-10? Entry: C=C/C=C\[C@H](C)[C@@H]1OC(=O)/C=C\C=C\[C@@H](C)[C@@H](O)C[C@H](O)/C=C\[C@H](C)[C@H](O)[C@@H](C)/C=C\CC[C@@H](O)[C@@H]1C
Result: 942 nM

Q: What is its GI50 for 1A9/ptx-10? Entry: C=C/C=C\[C@H](C)[C@@H]1OC(=O)/C=C\C=C\[C@@H](C)[C@@H](O)C[C@H](O)/C=C\[C@H](C)[C@H](O)[C@@H](C)C[C@H](C)CC[C@@H](O)[C@@H]1C
Result: 862 nM

Q: What is its GI50 for 1A9/ptx-10? Entry: C=C/C=C\[C@H](C)[C@@H]1OC(=O)/C=C/C=C/[C@@H](C)[C@@H](O)C[C@H](O)/C=C\[C@H](C)[C@H](O)[C@@H](C)/C=C\CC[C@@H](O)[C@@H]1C
Result: 23700 nM

Q: What is its GI50 for 1A9/ptx-10? Entry: C=C/C=C\[C@H](C)[C@H](OC(N)=O)[C@@H](C)[C@H](O)[C@@H](C)C/C=C\[C@H](C)[C@@H](O)[C@@H](C)/C=C\[C@@H](O)C[C@@H]1OC(=O)[C@H](C)[C@@H](O)[C@H]1C
Result: 33 nM

Q: What is its GI50 for 1A9/ptx-10? Entry: C=C/C=C\[C@H](C)[C@H](O)[C@H](C)[C@@H]1CC/C=C\[C@H](C)[C@@H](O)[C@@H](C)/C=C\[C@H](O)C[C@H](O)[C@H](C)/C=C\C=C\C(=O)O1
Result: 32700 nM

Q: What is its GI50 for 1A9/ptx-10? Entry: C=C/C=C\[C@H](C)[C@@H]1OC(=O)/C=C\C=C\[C@@H](C)[C@@H](O)C[C@H](O)/C=C\[C@H](C)[C@H](O)[C@@H](C)C[C@@H](C)CC[C@@H](O)[C@@H]1C [DICTYOSTATIN]
Result: 3.2 nM
